Target: T1, 4H2505-AA
T1 chain: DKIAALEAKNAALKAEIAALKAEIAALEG
Assay: two-hybrid library CCmax;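 note: natural log of median RNA to DNA barcode read ratio; higher means stronger binding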
Conditions: mean of both orientations
READOUT_NAME: interaction score

query: Consider the binder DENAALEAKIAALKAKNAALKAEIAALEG [4H1401-AA] . State its measured interaction score.
result: -1.67

query: Consider the binder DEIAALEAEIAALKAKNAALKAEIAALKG [4H122-AA] . State its measured interaction score.
result: -1.39

query: Consider the binder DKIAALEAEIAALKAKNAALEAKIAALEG [4H2165-AA] . State its measured interaction score.
result: -1.7

query: Consider the binder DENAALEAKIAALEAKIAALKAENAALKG [4H1324-AA] . State its measured interaction score.
result: -1.2
